Just for reference, patent US11306064B2 is where these values come from.

EXPERIMENTAL_SYSTEM: Human LBAT (Homo sapiens, UniProt Q14973)
Construct: kept under Geneticin selection
Sequence (Q14973 whole entry): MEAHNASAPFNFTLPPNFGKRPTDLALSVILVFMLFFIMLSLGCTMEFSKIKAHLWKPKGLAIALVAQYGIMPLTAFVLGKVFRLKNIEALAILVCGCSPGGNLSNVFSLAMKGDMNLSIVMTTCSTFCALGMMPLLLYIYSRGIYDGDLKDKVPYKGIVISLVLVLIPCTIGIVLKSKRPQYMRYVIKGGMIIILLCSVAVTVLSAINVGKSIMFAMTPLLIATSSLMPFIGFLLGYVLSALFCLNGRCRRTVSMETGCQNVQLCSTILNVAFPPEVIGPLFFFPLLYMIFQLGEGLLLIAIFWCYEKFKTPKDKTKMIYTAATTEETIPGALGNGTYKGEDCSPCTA
METHOD_SUMMARY: LBAT (h/m) assay: 3H-taurocholic acid uptake in human LBAT-overexpressing cells
EXPERIMENTAL_PARAMETERS: 0.3 μM 3H-taurocholic acid and 7.5 μM cold taurocholic acid, 20 minutes, read-out: hLBAT IC50
pIC50: −log10 of the molar value.

COMPOUND	EXPERIMENTAL_SYSTEM	pIC50
CCCCOC(=O)Nc1ccc(N2CC(CCCC)(CCCC)CS(=O)(=O)c3cc(O/C=C/C(=O)O)c(SC)cc32)cc1	Human LBAT (Homo sapiens, UniProt Q14973)	6.69
CCCC[C@]1(CC)CN(c2ccccc2)c2cc(SC)c(O/C=C(\F)C(=O)O)cc2S(=O)(=O)N1C (single isomer, unassigned)	Human LBAT (Homo sapiens, UniProt Q14973)	7.31
CCCCC1(CC)CN(c2ccc(NC(=O)OC(C)(C)C)cc2)c2cc(Br)c(O/C=C/C(=O)O)cc2S(=O)(=O)C1 (stereo not shown)	Human LBAT (Homo sapiens, UniProt Q14973)	7.00
CCCC[C@]1(CC)CN(c2ccccc2)c2cc(NC)c(O/C=C/C(=O)O)cc2S(=O)(=O)C1 (single isomer, unassigned)	Human LBAT (Homo sapiens, UniProt Q14973)	5.50
CCCCC1(CC)CN(c2ccc(C(=O)NC(C)(C)C)cc2)c2cc(SC)c(O/C=C/C(=O)O)cc2S(=O)(=O)C1 (stereo not shown)	Human LBAT (Homo sapiens, UniProt Q14973)	6.63
CCC1(CC)CN(c2ccccc2)c2cc(SC)c(O/C=C/C(=O)O)cc2S(=O)(=O)C1	Human LBAT (Homo sapiens, UniProt Q14973)	7.12
CCCCC1(CC)CN(c2ccccc2)c2cc(SC)c(O/C=C/C(=O)O)cc2S(=O)(=O)C1 (single isomer, unassigned) [Example 18]	Human LBAT (Homo sapiens, UniProt Q14973)	7.10
CCCCC1(CCCC)CN(c2ccccc2)c2cc(SC)c(O/C(C)=C/C(=O)O)cc2S(=O)(=O)N1	Human LBAT (Homo sapiens, UniProt Q14973)	5.31
CCCCC1(CCCC)CN(c2ccc(NC(=O)OC(C)(C)C)cc2)c2cc(SC)c(O/C=C/C(=O)O)cc2S(=O)(=O)C1	Human LBAT (Homo sapiens, UniProt Q14973)	6.75
CCCCC1(CC)CN(c2ccccc2)c2cc(N(C)C)c(O/C=C/C(=O)O)cc2S(=O)(=O)C1 (stereo not shown)	Human LBAT (Homo sapiens, UniProt Q14973)	6.08
CCCCC1(CC)CN(c2ccccc2)c2cc(Cl)c(O/C=C/C(=O)O)cc2S(=O)(=O)C1 (single isomer, unassigned) [Example 51]	Human LBAT (Homo sapiens, UniProt Q14973)	7.02
CCCC[C@]1(CC)CN(c2ccccc2)c2cc(Br)c(O/C=C(\F)C(=O)O)cc2S(=O)(=O)C1 (single isomer, unassigned)	Human LBAT (Homo sapiens, UniProt Q14973)	7.55
CCCCC1(CC)CN(c2ccccc2)c2cc(SCC)c(O/C=C(\F)C(=O)O)cc2S(=O)(=O)C1 (stereo not shown)	Human LBAT (Homo sapiens, UniProt Q14973)	7.89
CCCC[C@@]1(CC)CN(c2ccccc2)c2cc(N(C)C)c(O/C=C(\F)C(=O)O)cc2S(=O)(=O)C1 (single isomer, unassigned)	Human LBAT (Homo sapiens, UniProt Q14973)	7.17
CCCCC1(CCCC)CN(c2ccc(NC(=O)OC(C)(C)C)cc2)c2cc(SC)c(O/C=C(\F)C(=O)O)cc2S(=O)(=O)C1	Human LBAT (Homo sapiens, UniProt Q14973)	7.28
CCCCC1(CC)CN(c2ccccc2)c2cc(SC)c(O/C=C(\F)C(=O)O)cc2S(=O)(=O)N1C (racemic)	Human LBAT (Homo sapiens, UniProt Q14973)	7.66
CCCCC1(CCCC)CN(c2ccc(OC)cc2)c2cc(SC)c(O/C=C/C(=O)O)cc2S(=O)(=O)C1	Human LBAT (Homo sapiens, UniProt Q14973)	6.11
CCCCC1(CCCC)CN(c2ccc(O)cc2)c2cc(SC)c(O/C=C/C(=O)O)cc2S(=O)(=O)C1	Human LBAT (Homo sapiens, UniProt Q14973)	5.89
CCCCC1(CCCC)CN(c2ccc(NC(=O)C(C)C)cc2)c2cc(SC)c(O/C=C(\F)C(=O)O)cc2S(=O)(=O)C1	Human LBAT (Homo sapiens, UniProt Q14973)	7.77
